Molecular target: Pantothenate synthetase (Mycobacterium tuberculosis (strain ATCC 25618 / H37Rv))
Assay: Coupled enzyme confirmation of inhibitors against recombinant Mtb PanC (AID 375);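 note: 0% = full reaction with vehicle and 100% = no enzyme background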
Settings: coupled enzyme assay; at 10 µM, active compounds read high
quantity_measured: inhibition (%)
I only need the number, in %, no unit after it.

CC(C)Cn1c(=O)c(C2=NS(=O)(=O)c3ccccc3N2)c(O)c2ccccc21; 2
Cc1ccc(-c2nc3cc(NC(=O)C(C)C)ccc3o2)cc1C; 0
CCOc1ccc(C2CC(=O)NC3=C2C(=O)CCC3)cc1Cl (stereo unspecified); 0

Lookup: Give inhibition for the following molecule: CCC(=NC(C)c1ccccc1)c1c(O)n(C)c(=O)n(C)c1=O (stereo unspecified)
Found: 0

Lookup: Supply recorded inhibition for COc1cccc(NC(=O)C2CCN(c3ncccn3)CC2)c1 here.
Found: 2

Lookup: Identify inhibition associated with the molecule CCS(=O)(=O)CCn1c([N+](=O)[O-])cnc1C
Found: 7

Lookup: Input O=C1NC(Nc2ccccn2)(C(F)(F)F)C(=O)N1c1ccc(F)cc1 (stereo unspecified) , output reported inhibition.
Found: 0

Lookup: Return inhibition for the following molecule: Cc1cccc(NCc2ccccc2O)c1
Found: 3

Lookup: Tell me measured inhibition for Cc1cccc2sc(NC(=O)Cn3cccc3)nc12 please.
Found: 0

Lookup: Return the recorded inhibition value; entry: c1ccc2c(c1)nc(NC1CCCCC1)c1nncn12
Found: 0

Lookup: Return value of inhibition for input COc1cccc(-c2cc(C(F)(F)F)nc(NCc3ccco3)n2)c1 , no commentary.
Found: 0

Lookup: Using known records, supply inhibition for COc1ccc(/C=N/n2c(=O)[nH]c3c([nH]c4ccc(C)cc43)c2=O)cc1CN1CCOCC1
Found: 2

Lookup: Report inhibition for CCc1ccccc1NC(=O)CCc1nc(-c2ccc(C)cc2)no1
Found: 0

Lookup: Return reported inhibition. Input molecule: COc1ccc(-c2nnc(SCC(=O)Nc3sc4c(c3C#N)CCC4)n2CC2CCCO2)cc1 (stereo unspecified)
Found: 0

Lookup: Provide measured inhibition value, entry: COCCNC(=O)CCc1nc(-c2ccccc2)no1
Found: 0

Lookup: Please look at this molecule and report its inhibition: CCNc1nc(N2CCOCC2)nc(N(c2ccccc2)c2ccccc2)n1
Found: 0

Lookup: Note down inhibition recorded for CCOC(=O)C1CCCN(C/C(O)=C(\C#N)c2nc(-c3ccc(Cl)cc3)cs2)C1 (stereo unspecified)
Found: 5

Lookup: Specify measured inhibition for Cc1ccc(S(=O)(=O)NCCSc2nnnn2-c2ccc(C(N)=O)cc2)cc1 .
Found: 0

Lookup: Complete the entry with inhibition for CC(C)(S)[C@@H](N)C(=O)O
Found: 4

Lookup: Please supply the value of reported inhibition for the item CNC(=O)NCCN1CCCC1=O
Found: 6

Just for reference, PubChem BioAssay is where these values come from.
